The measured values listed here are drawn from ChEMBL document CHEMBL5608246.

assay: Hemolytic activity in sheep RBC incubated for 1 hr; format: toxicity, cell-based, Ovis aries, Erythrocyte; details: sheep red blood cells (erythrocytes)
recorded metric: HC50 at 1 h

The following compounds have reported results that may help.
smiles | result
C=CCc1ccc(O)c(-c2ccc(O)c(CC=C)c2)c1 | > 80 µg/mL
C=CCc1cc(-c2ccc(OCCC[N+](C)(C)CC(=O)NCCCC)c(CC=C)c2)c2oc(-c3ccc(Cl)cc3F)nc2c1.[Br-] | > 640 µg/mL
C=CCc1cc(-c2ccc(OCCC[N+](C)(C)CC(=O)NCCCC)c(CC=C)c2)c2oc(-c3ccc(Br)cc3)nc2c1.[Br-] | > 320 µg/mL

Noted for `C=CCc1cc(-c2ccc(OCCC[N+](C)(C)CC(=O)NCCCC)c(CC=C)c2)c2oc(-c3ccc(F)c(Cl)c3)nc2c1.[Br-]` : its HC50 at 1 h reads > 320 µg/mL
